- assay-explanation: Half-life in Sprague-Dawley rat at 2 mg/kg, iv measured upto 12 hrs by UPLC-MS/ESI analysis
- Format: ADME, organism-based
- conditions-used: in vivo
test-readout: half-life (h)
Provide the reading as a plain figure in h.

## Input Provide half-life value for the following compound: COc1cc(-c2nccc3[nH]c(-c4cccc5c4ccn5C)nc23)cc(OC)c1OC
## Output 1.08

###

- assay-explanation: Cmax in Sprague-Dawley rat at 2 mg/kg, iv measured upto 12 hrs by UPLC-MS/ESI analysis
- Format: ADME, organism-based
- Parameters: dose 2 mg/kg, time < 12 hrs, route iv
- conditions-used: in vivo
test-readout: Cmax (ng/mL)
Field: numeric (ng/mL). Do not append units.

## Input Please list Cmax recorded for the compound COc1cc(-c2nccc3[nH]c(-c4cccc5c4ccn5C)nc23)cc(OC)c1OC
## Output 1730

###

- Tested on: A2780/Taxol
- assay-explanation: Antiproliferative activity against paclitaxel resistant human A2780/Taxol cells assessed as inhibition of cell proliferation incubated for 48 hrs by MTT assay
- Format: functional, cell-based
test-readout: IC50
Quote the value and follow it with the unit of measurement.

## Input Complete the entry with IC50 for COc1cc(-c2nccc3[nH]c(-c4cccc5c4ccn5C)nc23)cc(OC)c1OC
## Output 5.1 nM

## Input For the compound COc1cc2c(c(OC)c1OC)-c1ccc(OC)c(=O)cc1[C@@H](NC(C)=O)CC2 [COLCHICINE] , give its measured IC50 value.
## Output 670 nM

## Input Answer with the recorded IC50 for the compound listed here: CC(=O)O[C@H]1C(=O)[C@@]2(C)[C@H]([C@H](OC(=O)c3ccccc3)[C@]3(O)C[C@H](OC(=O)[C@H](O)[C@@H](NC(=O)c4ccccc4)c4ccccc4)C(C)=C1C3(C)C)[C@]1(OC(C)=O)CO[C@@H]1C[C@@H]2O [PACLITAXEL]
## Output 2020 nM

###

- assay-explanation: Cmax in Sprague-Dawley rat at 20 mg/kg, po measured upto 12 hrs by UPLC-MS/ESI analysis
- Type: ADME, organism-based
- Set-up: time < 12 hrs, dose 20 mg/kg, route po
- conditions-used: in vivo
test-readout: Cmax (µg/mL)
Lab book: enter the figure in µg/mL, no units written.

## Input Given COc1cc(-c2nccc3[nH]c(-c4cccc5c4ccn5C)nc23)cc(OC)c1OC , respond with its Cmax.
## Output 0.879

###

- assay-explanation: MRT (0 to t) in Sprague-Dawley rat at 20 mg/kg, po measured upto 12 hrs by UPLC-MS/ESI analysis
- Format: ADME, organism-based
- conditions-used: in vivo
test-readout: MRT last at 12 h (h)
Numeric only. Scale: h

## Input Please report the measured MRT last at 12 h for COc1cc(-c2nccc3[nH]c(-c4cccc5c4ccn5C)nc23)cc(OC)c1OC
## Output 3.06

###

- assay-explanation: AUC (0 to infinity) in Sprague-Dawley rat at 20 mg/kg, po measured upto 12 hrs by UPLC-MS/ESI analysis
- Assay type: ADME, organism-based
- Set-up: dose 20 mg/kg, time < 12 hrs, route po
- conditions-used: in vivo
test-readout: AUC(0-inf) (ng·h/mL)
Respond with the bare value in ng·h/mL.

## Input Return value of AUC(0-inf) for input COc1cc(-c2nccc3[nH]c(-c4cccc5c4ccn5C)nc23)cc(OC)c1OC , no commentary.
## Output 3380

###

- assay-explanation: MRT (0 to infinity) in Sprague-Dawley rat at 20 mg/kg, po measured upto 12 hrs by UPLC-MS/ESI analysis
- Assay type: ADME, organism-based
- conditions-used: in vivo
test-readout: MRT inf (h)
Return type: number; implicit unit h.

## Input In one line, give reported MRT inf of the entry COc1cc(-c2nccc3[nH]c(-c4cccc5c4ccn5C)nc23)cc(OC)c1OC .
## Output 3.24

###

- assay-explanation: Cytotoxicity against HUVEC cells assessed as inhibition of cell proliferation incubated for 24 hrs by MTT assay
- Assay type: toxicity, cell-based
- conditions-used: human
test-readout: IC50 at 24 h
Provide the measurement as a number trailed by its unit.

## Input Consider the molecule COc1cc(-c2nccc3[nH]c(-c4cccc5c4ccn5C)nc23)cc(OC)c1OC and give its recorded IC50 at 24 h.
## Output 62.1 nM

###

- assay-explanation: Apparent volume of distribution in Sprague-Dawley rat at 2 mg/kg, iv measured upto 12 hrs by UPLC-MS/ESI analysis
- Format: ADME, organism-based
- conditions-used: in vivo, read-out: Vz
test-readout: Vd

## Input State its Vd: COc1cc(-c2nccc3[nH]c(-c4cccc5c4ccn5C)nc23)cc(OC)c1OC
## Output 1.08 L/kg

###

- Test system: HeLa
- assay-explanation: Antiproliferative activity against human HeLa cells assessed as inhibition of cell proliferation incubated for 48 hrs by MTT assay
- Format: functional, cell-based
pIC50: −log10 of the molar value.
Criterion: pIC50 meeting or surpassing 7. Met: condition met. Not met: condition not met.

## Input Decide: pIC50 of COc1cc(-c2nn(C(=O)OC(C)(C)C)c3cnc(-c4cccc5c4ccn5C)cc23)cc(OC)c1OC >= 7?
## Output condition not met

## Input # bool: pIC50 of COc1cc(-c2nn(C(=O)OC(C)(C)C)c3ccc(-c4cccc5c4ccn5C)cc23)cc(OC)c1OC >= 7
## Output condition not met

## Input Please indicate if the recorded pIC50 for COc1cc(-c2n[nH]c3ccc(-c4cccc5c4ccn5C)cc23)cc(OC)c1OC meets or exceeds 7.
## Output condition met

## Input Item COc1ccc(-c2nccc3[nH]c(-c4cccc5c4ccn5C)nc23)cc1OC with pIC50 of 7 or above?
## Output condition not met

## Input # check: pIC50 of CCn1ccc2c(-c3nc4c(-c5cc(OC)c(OC)c(OC)c5)nccc4[nH]3)cccc21 is greater than or equal to 7
## Output condition met

## Input Check if pIC50 >= 7 (inclusive). Item: COc1cc(-c2n[nH]c3cnc(-c4ccc5c(ccn5C)c4)cc23)cc(OC)c1OC
## Output condition not met

## Input Hi, just wondering whether COc1cc(-c2nn(C(=O)OC(C)(C)C)c3ccc(-c4cccc5c4ccn5C)nc23)cc(OC)c1OC shows pIC50 of 7 or higher.
## Output condition not met

###

- assay-explanation: AUC (0 to t) in Sprague-Dawley rat at 20 mg/kg, po measured upto 12 hrs by UPLC-MS/ESI analysis
- Type: ADME, organism-based
- Design: time < 12 hrs, dose 20 mg/kg, route po
- conditions-used: in vivo
test-readout: AUC(0-t) at 12 h
Answer format reminder: number followed by unit.

## Input Recall and state the measured AUC(0-t) at 12 h for COc1cc(-c2nccc3[nH]c(-c4cccc5c4ccn5C)nc23)cc(OC)c1OC .
## Output 3330 ng·h/mL

###

- assay-explanation: AUC(0 to t) in Sprague-Dawley rat at 2 mg/kg, iv measured upto 12 hrs by UPLC-MS/ESI analysis
- Format: ADME, organism-based
- Parameters: time < 12 hrs, dose 2 mg/kg, route iv
- conditions-used: in vivo
test-readout: AUC(0-t) at 12 h

## Input Note AUC(0-t) at 12 h for the compound shown: COc1cc(-c2nccc3[nH]c(-c4cccc5c4ccn5C)nc23)cc(OC)c1OC
## Output 3060 ng·h/mL

###

- assay-explanation: Tmax in Sprague-Dawley rat at 2 mg/kg, iv measured upto 12 hrs by UPLC-MS/ESI analysis
- Format: ADME, organism-based
- conditions-used: in vivo
test-readout: Tmax (min)
Entry rule: numbers only, all in min.

## Input Read off the recorded Tmax for COc1cc(-c2nccc3[nH]c(-c4cccc5c4ccn5C)nc23)cc(OC)c1OC
## Output 4.98

###

- Test system: B16-F10
- assay-explanation: Antiproliferative activity against mouse B16-F10 cells assessed as inhibition of cell proliferation incubated for 48 hrs by MTT assay
- Assay type: functional, cell-based
- conditions-used: B16-F10, 48 h
test-readout: pIC50
Reminder that pIC50 is minus the log10 of a molar concentration.

## Input Consider the compound COc1cc(-c2nccc3[nH]c(-c4cccc5c4ccn5C)nc23)cc(OC)c1OC . State its measured pIC50.
## Output 8.70

## Input State its pIC50 for this compound: COc1cc(-c2nn(C(=O)OC(C)(C)C)c3ccc(-c4cccc5c4ccn5C)cc23)cc(OC)c1OC
## Output 6.31

## Input Determine from records and report pIC50 for COc1cc(-c2nn(C(=O)OC(C)(C)C)c3cnc(-c4cccc5c4ccn5C)cc23)cc(OC)c1OC
## Output 5.29

## Input Write down pIC50 measured for item COc1cc(-c2nn(C(=O)OC(C)(C)C)c3ccc(-c4cccc5c4ccn5C)nc23)cc(OC)c1OC
## Output 6.41

## Input Return the recorded pIC50 value; entry: COc1cc(-c2n[nH]c3ccc(-c4ccc5c(ccn5C)c4)cc23)cc(OC)c1OC
## Output 7.01
